Listing: MSRA (% modification) 5.0 μM 0.25 hr of selected compounds
Tested target: GDP-loaded KRAS (1-169) G12C, C51S, C80L, C118S (Homo sapiens, UniProt P01116, C118S/C51S/C80L/G12C)
Construct: GDP-loaded KRAS (1-169) G12C, C51S, C80L, C118S
Measurement protocol: Mass Spectrometry Reactivity Assay (MSRA): covalent adduct of compound and KRAS G12C, Percent Modification
Format: binding
Settings: 5.0 μM compound, 0.25 hr
Experimental readout: MSRA (% modification) 5.0 μM 0.25 hr (%)

1) C=CC(=O)N1CCN(c2nc(Oc3cnn(C)c3)nc3c(Oc4c(Cl)c(F)cc5[nH]ncc45)nccc23)CC1 [Example 09I] ... 44
2) C=CC(=O)N1CCN(c2nc(Oc3cccnc3C3CC3)nc3c(Oc4c(Cl)c(F)cc5[nH]ncc45)nccc23)CC1 [Example 06I] ... 74
3) C=CC(=O)N1CCN(c2nc(OCc3cscn3)nc3c(Oc4c(C)ccc5[nH]ncc45)cccc23)CC1 [Example 23F] ... 55
4) C=CC(=O)N1CCN(c2nc(OC[C@H]3CCCO3)nc3c(Oc4c(Cl)c(F)cc5[nH]ncc45)nccc23)CC1 [Example 06H] ... 48
5) C=CC(=O)N1CCN(c2nc(N3CC(N(C)C)C3)nc3c(Oc4c(Cl)c(C)cc5[nH]ncc45)nccc23)CC1 [Example 04E] ... 71
6) C=CC(=O)N1CCN(c2nc(O[C@H]3CCOC3)nc3c(Oc4c(Cl)c(F)cc5[nH]ncc45)nccc23)CC1 [Example 01J] ... 55
7) C=CC(=O)N1CCN(c2nc(Oc3cccnc3OC)nc3c(Oc4c(Cl)c(F)cc5[nH]ncc45)nccc23)CC1 [Example 08I] ... 65
8) C=CC(=O)N1CCN(c2nc(OCC3CCCCN3C)nc3c(Oc4c(C)ccc5[nH]ncc45)cccc23)CC1 (stereo not drawn) [Example 21F] ... 61
9) C=CC(=O)N1CCN(c2nc(OCC3CC(=O)N(C)C3)nc3c(Oc4c(Cl)c(F)cc5[nH]ncc45)nccc23)CC1 (stereo not drawn) [Example 03J] ... 77
10) C=CC(=O)N1CCN(c2nc(O[C@@H]3CN(C)C[C@H]3OC)nc3c(Oc4c(Cl)c(F)cc5[nH]ncc45)nc(Cl)cc23)CC1 [Example 24G] ... 84
11) C=CC(=O)N1CCN(c2nc(OC[C@H]3CCCN3C(C)=O)nc3c(Oc4c(Cl)c(F)cc5[nH]ncc45)nccc23)CC1 [Example 04J] ... 64
12) C=CC(=O)N1CCN(c2nc(OC[C@@H]3CCCN3C)nc3c(Oc4c(Cl)c(C)cc5[nH]ncc45)nccc23)CC1 [Example 09H] ... 78
13) C=CC(=O)N1CCN(c2ncnc3c(Oc4c(Cl)c(F)cc5[nH]ncc45)cccc23)CC1 [Example 18C] ... 36
14) C=CC(=O)N1CCN(c2nc(Oc3cccnc3C(F)(F)F)nc3c(Oc4c(Cl)c(F)cc5[nH]ncc45)nccc23)CC1 [Example 07I] ... 46
15) C=CC(=O)N1CCN(c2nc(OCC3(F)CCN(C)CC3)nc3c(Oc4c(Cl)c(F)cc5[nH]ncc45)nccc23)CC1 [Example 12I] ... 78
16) C=CC(=O)N1CCN(c2nc(OC[C@H]3CCCN3C)nc3c(Oc4c(Cl)c(F)cc5[nH]ncc45)nccc23)CC1 [Example 17E] ... 76
17) C=CC(=O)N1CCN(c2nc(Oc3cccnc3)nc3c(Oc4c(Cl)c(F)cc5[nH]ncc45)nccc23)CC1 [Example 13I] ... 44
18) C=CC(=O)N1CCN(c2nc(OC[C@@H]3CCCN3C)nc3c(Oc4c(Cl)c(C)cc5[nH]ncc45)nc(Cl)cc23)CC1 [Example 06G] ... 52
19) C=CC(=O)N1CCN(c2nc(OCc3ccccn3)nc3c(Oc4c(Cl)c(F)cc5[nH]ncc45)nccc23)CC1 [Example 08H] ... 36
20) C=CC(=O)N1CCN(c2nc(OC[C@@H]3CCCN3C)nc3c(Oc4c(C)c(F)cc5[nH]ncc45)nccc23)CC1 [Example 04I] ... 55
21) C=CC(=O)N1CCN(c2nc(OC[C@H]3COCCN3C)nc3c(Oc4c(Cl)c(F)cc5[nH]ncc45)nccc23)CC1 [Example 10H] ... 47
22) C=CC(=O)N1CCN(c2nc(OC[C@H]3CN(C)C[C@@H]3OC)nc3c(Oc4c(Cl)c(F)cc5[nH]ncc45)nc(Cl)cc23)CC1 [Example 18G] ... 88
23) C=CC(=O)N1CCN(c2nc(N3C[C@@](C)(O)[C@@H]3C)nc3c(Oc4c(Cl)c(F)cc5[nH]ncc45)nccc23)CC1 [Example 06J] ... 33
24) C=CC(=O)N1CCN(c2nc(OCc3cccnc3)nc3c(Oc4c(Cl)c(F)cc5[nH]ncc45)nccc23)CC1 [Example 07H] ... 66
25) C=CC(=O)N1CCN(c2nc(OC[C@@H]3CCCN3C)nc3c(Oc4c(C)ccc5[nH]ncc45)cccc23)CC1 [Example 07E] ... 67
26) C=CC(=O)N1CCN(c2nc(OC[C@@H]3CCCN3C)nc3c(Oc4c(C)c(Cl)cc5[nH]ncc45)cccc23)CC1 [Example 22E] ... 83
27) C=CC(=O)N1CCN(c2nc(OC[C@@H]3C[C@@H](F)CN3C)nc3c(Oc4c(Cl)c(F)cc5[nH]ncc45)nccc23)CC1 [Example 16H] ... 57

----------
Tested target: KRAS G12C (Homo sapiens, UniProt P01116, G12C)
Measurement protocol: Cell Activity Assay: accumulation of GDP-bound KRAS G12C in MIAPaCa-2 cells (Raf-1 RBD capture, MSD readout)
Format: cell-based
Parameters: endogenous in cells; host or cells: MIAPaCa-2
Settings: 6 hours, assay limit is 30.00
Experimental readout: IC50

1) C=CC(=O)N1CCN(c2nc(OC[C@@H]3CCCN3C)nc3c(Oc4c(Cl)c(F)cc5[nH]ncc45)nc(Cl)cc23)CC1 [Example 01G] ... 0.04 µM
2) C=CC(=O)N1CCN(c2nc(Oc3cccnc3C(C)C)nc3c(Oc4c(Cl)c(F)cc5[nH]ncc45)nccc23)CC1 [Example 05I] ... 0.074 µM
3) C=CC(=O)N1CCN(c2ncnc3c(Oc4c(C)ccc5[nH]ncc45)nc(C)cc23)CC1 [Example 02A] ... 5.25 µM
4) C=CC(=O)N1CCN(c2nc(OC[C@H]3CCCN3C)nc3c(Oc4c(Cl)c(F)cc5[nH]ncc45)nccc23)CC1 [Example 17E] ... 0.197 µM
5) C=CC(=O)N1CCN(c2nc(O[C@@H]3CN(C)C[C@H]3C(F)F)nc3c(Oc4c(Cl)c(F)cc5[nH]ncc45)nccc23)CC1 (racemic) [Example 36I] ... 0.029 µM
6) C=CC(=O)N1CCN(c2ncnc3c(Oc4c(Cl)c(C)cc5[nH]ncc45)nc(C#N)cc23)CC1 [Example 19A] ... 28 µM
7) C=CC(=O)N1CCN(c2nc(O[C@@H]3CN(C)C[C@H]3OC)nc3c(Oc4c(Cl)c(F)cc5[nH]ncc45)nccc23)[C@H](C)C1 [Example 34I] ... 0.935 µM

----------
Tested target: KRAS G12C (Homo sapiens, UniProt P01116, G12C)
Measurement protocol: Cell Activity Assay: accumulation of GDP-bound KRAS G12C in MIAPaCa-2 cells (Raf-1 RBD capture, MSD readout)
Format: cell-based
Design: endogenous in cells; host or cells: MIAPaCa-2
Settings: 6 hours, assay limit is 30.00
Lab note: compare IC50 with 0.8 µM, writing yes if less and no if equal or more.

1) C=CC(=O)N1CCN(c2nc(NCCC(=O)NC)nc3c(Oc4c(C)ccc5[nH]ncc45)cccc23)CC1 [Example 13F] ... no
2) C=CC(=O)N1CCN(c2nc(OC[C@]3(F)CCCN(C)C3)nc3c(Oc4c(Cl)c(F)cc5[nH]ncc45)nccc23)CC1 [Example 02I] ... yes
3) C=CC(=O)N1CCN(c2nc(OCCCN(C)C)nc3c(Oc4c(Cl)c(C)cc5[nH]ncc45)cc(Cl)cc23)CC1 [Example 12E] ... no
4) C=CC(=O)N1CCN(c2nc(Oc3cccc4c3CCN(C(C)C)C4)nc3c(Oc4c(Cl)c(F)cc5[nH]ncc45)nccc23)CC1 [Example 19I] ... yes
5) C=CC(=O)N1CCN(c2nc(OC[C@@]3(F)CCCN(C)C3)nc3c(Oc4c(Cl)c(F)cc5[nH]ncc45)nccc23)CC1 [Example 15I] ... yes
6) C=CC(=O)N1CCN(c2ncnc3c(Oc4c(C)ccc5[nH]ncc45)cccc23)C[C@H]1C [Example 03C] ... no
7) C=CC(=O)N1CCN(c2nc(OC[C@@H]3COCCN3C)nc3c(Oc4c(Cl)c(F)cc5[nH]ncc45)nccc23)CC1 [Example 03H] ... no
